These measurements were taken from patent US20230407373A1.

- Tested on: HCoV-OC43 gRNA and sgRNA
- Type: binding
- study.conditions: type n_48_v; 48 hpi; no-probe control on infected cells
Kindly supply the reported background (unweighted spectral count, no-probe control) values for the records listed here.

Task: Can you look up the measured background (unweighted spectral count, no-probe control) of HNRNPD (protein, UniProt Q14103 2-355, looked up) Heterogeneous nuclear …: SEEQFGGDGAAAAATAAVGGSAGEQEGAMVAATQGAAAAAGSGAGTGGGTASGGTEGGSAESEGAKIDASKNEEDEGHSNSSPRHSEAATAQREEWKMFIGGLSWDTTKKDLKDYFSKFGEVVDCTLKLDPITGRSRGFGFVLFKESESVDKVMDQKEHKLNGKVIDPKRAKAMKTKEPVKKIFVGGLSPDTPEEKIREYFGGFGEVESIELPMDNKTNKRRGFCFITFKEEEPVKKIMEKKYHNVGLSKCEIKVAMSKEQYQQQQQWGSRGGFAGRARGRGGGPSQNWNQGYSNYWNQGYGNYGYNSQGYGGYGGYDYTGYNNYYGYGDYSNQQSGYGKVSRRGGHQNSYKPY for me?
Result: 2

Task: Quick check: background (unweighted spectral count, no-probe control) of PURA (protein, UniProt Q00577 2-322, looked up) Transcriptional activator …: ADRDSGSEQGGAALGSGGSLGHPGSGSGSGGGGGGGGGGGGSGGGGGGAPGGLQHETQELASKRVDIQNKRFYLDVKQNAKGRFLKIAEVGAGGNKSRLTLSMSVAVEFRDYLGDFIEHYAQLGPSQPPDLAQAQDEPRRALKSEFLVRENRKYYMDLKENQRGRFLRIRQTVNRGPGLGSTQGQTIALPAQGLIEFRDALAKLIDDYGVEEEPAELPEGTSLTVDNKRFFFDVGSNKYGVFMRVSEVKPTYRNSITVPYKVWAKFGHTFCKYSEEMKKIQEKQREKRAACEQLHQQQQQQQEETAAATLLLQGEEEGEED ?
Result: 1
